Target: IgG
Test: SPR, IgG immobilised on CM5 chip, compound as analyte; value from the legend of the grade (++++ = Kd <100 nM)
Bridges are numbered along the chain shown (N, C = ends). [ ]: non-standard residue; d: D form. Pro(4S-NH2) = N[C@@H]1CN[C@H](C(=O)O)C1
REPORTED ENDPOINT: Kd

# input Identify measured Kd corresponding to cyclo([Pro(4S-NH2)]DCAWHLGQLVWCT[dP]) (disulfide 3-13; SMILES CC(C)C[C@@H]1NC(=O)[C@H](Cc2c[nH]cn2)NC(=O)[C@H](Cc2c[nH]c3ccccc23)NC(=O)[C@H](C)NC(=O)[C@@H]2CSSC[C@H](NC(=O)[C@H](Cc3c[nH]c4ccccc34)NC(=O)[C@H](C(C)C)NC(=O)[C@H](CC(C)C)NC(=O)[C@H](CCC(N)=O)NC(=O)CNC1=O)C(=O)N[C@@H]([C@@H](C)O)C(=O)N1CCC[C@@H]1C(=O)N1C[C@@H](N)C[C@H]1C(=O)N[C@@H](CC(=O)O)C(=O)N2) [Intermediate 18]
# output < 100 nM
